Tested on: HCV NS5B polymerase 1a-H77-C316Y
experimentalDetails: biochemical
Parameters: species or system HCV genotype 1a
experimentalSetup: ratio of enzyme IC50s, 1a H77-C316Y / 1a H77
One threshold, 10 fold, splits the recorded C316Y/1a Fold Resistance values: lower ones are MET, equal or higher ones are NOT MET.

CC[S+]([O-])CCN(c1cc2oc(-c3ccc(F)cc3)c(C3=NOCCN3)c2cc1C1CC1)S(C)(=O)=O (centres unmarked) :: NOT MET

Please examine the following record next.
Just wondering, is C316Y/1a Fold Resistance of `CS(=O)(=O)N(CCCS(=O)(=O)c1ccccc1)c1cc2oc(-c3ccc(F)cc3)c(-c3ncc[nH]3)c2cc1C1CC1` below 10 fold? NOT MET

---

Tested on: HCV 1b-BB7 subgenomic replicon
experimentalDetails: microbe, parasite or virus in culture
Format: cell-based, HCV genotype 1b
experimentalSetup: Hepatitis C virus, stable replicon, strain 1b BB7, 5% FBS, no human plasma; read-out: 1b BB7 5% FBS EC50
As shown below, each of these compounds has a reported pEC50 value.
Scale for pEC50: -log10 of concentration given in mol/L; no unit attached.

Worked cases, answers included:
C=CCN(c1cc2oc(-c3ccc(F)cc3)c(-c3ncc[nH]3)c2cc1C1CC1)S(C)(=O)=O :: 7.75
CS(=O)(=O)N(CCC/C(N)=N/O)c1cc2oc(-c3ccc(F)cc3)c(-c3ncc[nH]3)c2cc1C1CC1 :: 7.70
CC1NC(c2c(-c3ccc(F)cc3)oc3cc(N(CCCCO)S(C)(=O)=O)c(C4CC4)cc23)=NO1 (stereo not shown) :: 7.99

Next:
Can you look up the measured pEC50 of `CS(=O)(=O)N(CCCCCO)c1cc2oc(-c3ccc(F)cc3)c(C3=NOCCN3)c2cc1C1CC1` for me? 8.05

---

Test system: HCV 1b-BB7 subgenomic replicon
experimentalDetails: microbe, parasite or virus in culture
Assay type: cell-based, HCV genotype 1b
experimentalSetup: Hepatitis C virus, stable replicon, strain 1b BB7, 5% FBS, no human plasma; read-out: 1b BB7 5% FBS EC50
Note to self: EC50 under 20 nM means 1.0, ties and anything higher get 0.0.

CS(=O)(=O)CCCCN(c1cc2oc(-c3ccc(F)cc3)c(-c3ncc[nH]3)c2cc1C1CC1)S(C)(=O)=O :: 1.0
CS(=O)(=O)N(CCCO)c1cc2oc(-c3ccc(F)cc3)c(-c3ncc[nH]3)c2cc1C1CC1 :: 1.0
CSCCN(c1cc2oc(-c3ccc(F)cc3)c(-c3ncc[nH]3)c2cc1C1CC1)S(C)(=O)=O :: 1.0
CS(=O)(=O)N(CCO)c1cc2oc(-c3ccc(F)cc3)c(C3=NOCCN3)c2cc1C1CC1 :: 0.0
CCN(c1cc2oc(-c3ccc(F)cc3)c(-c3ncc[nH]3)c2cc1C1CC1)S(C)(=O)=O :: 1.0

# evaluate next
Bench note: check whether `CS(=O)(=O)N(CCC1CCCCC1)c1cc2oc(-c3ccc(F)cc3)c(-c3ncc[nH]3)c2cc1C1CC1` shows EC50 below 20 nM 0.0

---

Test system: HCV 1b-BB7 subgenomic replicon
experimentalDetails: microbe, parasite or virus in culture
Type: cell-based, HCV genotype 1b
experimentalSetup: Hepatitis C virus, stable replicon, strain 1b BB7, 5% FBS, no human plasma; read-out: 1b BB7 5% FBS EC50
Output schema: class label derived from EC50. Mapping: bucket A = under 0.01 µM, bucket B = from 0.01 µM up to 0.04 µM, bucket C = 0.04 µM and over

Reference set, count: 5
CCS(=O)(=O)CCN(c1cc2oc(-c3ccc(F)cc3)c(-c3ncc[nH]3)c2cc1C1CC1)S(C)(=O)=O :: bucket A
CCOC(=O)CCCCN(c1cc2oc(-c3ccc(F)cc3)c(-c3ncc[nH]3)c2cc1C1CC1)S(C)(=O)=O :: bucket A
CS(=O)(=O)N(CCCc1noc(=S)[nH]1)c1cc2oc(-c3ccc(F)cc3)c(C3=NOCCN3)c2cc1C1CC1 :: bucket C
CS(=O)(=O)N(CC1CCOCC1)c1cc2oc(-c3ccc(F)cc3)c(-c3ncc[nH]3)c2cc1C1CC1 :: bucket B
CS(=O)(=O)N(CCCc1noc(=S)[nH]1)c1cc2oc(-c3ccc(F)cc3)c(-c3ncc[nH]3)c2cc1C1CC1 :: bucket B

# ---- query compound ----
Please indicate the class for `COc1ccc(CN(c2cc3oc(-c4ccc(F)cc4)c(-c4nc(Cl)c[nH]4)c3cc2C2CC2)S(C)(=O)=O)cc1` based on its EC50. bucket C

---

The following compounds are listed with their measured pEC50 values.
System: HCV 1a-H77 subgenomic replicon
experimentalDetails: microbe, parasite or virus in culture
Type: cell-based, HCV genotype 1a
experimentalSetup: Hepatitis C virus, stable replicon, 5% FBS, absence of human plasma; read-out: Stable Replicon 1a H77 5% FBS EC50
Please note pEC50 is a logarithmic value: minus log10 of concentration in mol/L. Answer with that number alone.

Worked examples, 3 compounds total:
CN(C)C(=O)CCCN(c1cc2oc(-c3ccc(F)cc3)c(-c3ncc[nH]3)c2cc1C1CC1)S(C)(=O)=O [Example 102] :: 7.62
CS(=O)(=O)N(CCC1CCS(=O)(=O)C1)c1cc2oc(-c3ccc(F)cc3)c(C3=NOCN3)c2cc1C1CC1 (stereo not shown) [Example 149] :: 8.06
CSCCN(c1cc2oc(-c3ccc(F)cc3)c(-c3ncc[nH]3)c2cc1C1CC1)S(C)(=O)=O [Example 74] :: 7.87

// fetch HCV 1a-H77 subgenomic replicon pEC50 for CS(=O)(=O)N(CC1CC1)c1cc2oc(-c3ccc(F)cc3)c(-c3ncc[nH]3)c2cc1C1CC1 [Example 53] 6.95

---

Tested on: HCV 1b-BB7 subgenomic replicon
experimentalDetails: microbe, parasite or virus in culture
Format: cell-based, HCV genotype 1b
experimentalSetup: Hepatitis C virus, stable replicon, strain 1b BB7, 5% FBS + 40% human plasma; read-out: 1b BB7 5% FBS + 40% Human Plasma EC50
Parameter: pEC50. Scope: all listed entries.
As a rule, pEC50 stands for the negative log10 of the concentration, concentration in M.

Could you share which pEC50 value was measured for CS(=O)(=O)N(CC1CC1(F)F)c1cc2oc(-c3ccc(F)cc3)c(-c3ncc[nH]3)c2cc1C1CC1 (centres unmarked) ? 6.44

Need pEC50, item `CS(=O)(=O)N(Cc1cccc(C(F)(F)F)c1)c1ccc2c(-c3ncc[nH]3)c(-c3ccccc3)oc2c1` 4.10

---

Test system: HCV 1a-H77 subgenomic replicon
experimentalDetails: microbe, parasite or virus in culture
Assay type: cell-based, HCV genotype 1a
experimentalSetup: Hepatitis C virus, stable replicon, 5% FBS, absence of human plasma; read-out: Stable Replicon 1a H77 5% FBS EC50
measuredProperty: pEC50
Recall that pEC50 is obtained by taking minus log10 of the concentration measured in molar.

CS(=O)(=O)Nc1cc2oc(-c3ccc(F)cc3)c(-c3nc(Cl)c(Cl)[nH]3)c2cc1C1CC1 [Example 163] :: 5.11

Moving on to another molecule below.
Notebook: pull reported pEC50 for HCV 1a-H77 subgenomic replicon, entry CS(=O)(=O)N(CCCc1cc(O)no1)c1cc2oc(-c3ccc(F)cc3)c(-c3ncc[nH]3)c2cc1C1CC1 [Example 7] 7.82

---

The entries below come with measured log10(IC50) values attached.
targetOrTestSystem: HCV NS5B polymerase 1b BK strain (Hepatitis C virus genotype 1b, UniProt P26663)
Construct: six-histidine tag; made in house; host or cells: E. coli
Sequence (P26663 2420-2989): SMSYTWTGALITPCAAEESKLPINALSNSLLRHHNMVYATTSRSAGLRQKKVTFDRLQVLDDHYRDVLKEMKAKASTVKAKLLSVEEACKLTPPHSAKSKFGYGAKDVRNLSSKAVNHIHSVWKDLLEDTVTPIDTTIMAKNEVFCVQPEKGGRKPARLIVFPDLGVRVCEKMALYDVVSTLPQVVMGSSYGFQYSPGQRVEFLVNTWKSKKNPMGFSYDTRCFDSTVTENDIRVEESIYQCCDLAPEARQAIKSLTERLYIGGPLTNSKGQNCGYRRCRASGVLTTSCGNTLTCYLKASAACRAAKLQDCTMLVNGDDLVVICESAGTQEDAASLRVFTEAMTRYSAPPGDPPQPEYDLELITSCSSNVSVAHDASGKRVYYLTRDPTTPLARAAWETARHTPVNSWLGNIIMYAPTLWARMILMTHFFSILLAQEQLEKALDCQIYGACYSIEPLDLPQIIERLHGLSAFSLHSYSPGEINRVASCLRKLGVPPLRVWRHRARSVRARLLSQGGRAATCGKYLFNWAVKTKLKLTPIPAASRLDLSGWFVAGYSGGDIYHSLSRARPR
experimentalDetails: HCV NS5B polymerase enzymatic inhibition assay, strain 1b BK
Format: biochemical
experimentalSetup: enzyme, strain 1b BK; read-out: HCV Polymerase Strain 1b BK IC50
Recall that a logarithmic scale is used here: each number is log10 of IC50 in nM.

CC(C)CN(c1cc2oc(-c3ccc(F)cc3)c(-c3ncc[nH]3)c2cc1C1CC1)S(C)(=O)=O :: 1.85
CCOP(=O)(CCCN(c1cc2oc(-c3ccc(F)cc3)c(C3=NOCCN3)c2cc1C1CC1)S(C)(=O)=O)OCC :: 1.54
C[S+]([O-])c1ccc(-c2ncc(CN(c3ccc4c(-c5ncc[nH]5)c(-c5ccccc5)oc4c3)S(C)(=O)=O)s2)cc1 (stereo not drawn) :: 1.26
CS(=O)(=O)N(CCC(F)(F)F)c1cc2oc(-c3ccc(F)cc3)c(C3=NOCCN3)c2cc1C1CC1 :: 1.69
CS(=O)(=O)CCCCN(c1cc2oc(-c3ccc(F)cc3)c(C3=NOCN3)c2cc1C1CC1)S(C)(=O)=O :: 0.78

I'd like to know its log10(IC50). The molecule in question is `CS(=O)(=O)N(CC1CCCC1)c1cc2oc(-c3ccc(F)cc3)c(-c3ncc[nH]3)c2cc1C1CC1` 1.34

---

targetOrTestSystem: HCV NS5B polymerase 1b BK strain (Hepatitis C virus genotype 1b, UniProt P26663)
Construct: six-histidine tag; made in house; host or cells: E. coli
experimentalDetails: HCV NS5B polymerase enzymatic inhibition assay, strain 1b BK
Format: biochemical
experimentalSetup: enzyme, strain 1b BK; read-out: HCV Polymerase Strain 1b BK IC50
pIC50: −log10 of the molar value.
# if value of pIC50 reaches 7, tag MET; if it stays below, tag NOT MET

Examples with answers:
CCS(=O)(=O)CCN(c1cc2oc(-c3ccc(F)cc3)c(-c3ncc[nH]3)c2cc1C1CC1)S(C)(=O)=O :: MET
CCS(=O)(=O)CCCN(c1cc2oc(-c3ccc(F)cc3)c(C3=NOCCN3)c2cc1C1CC1)S(C)(=O)=O :: MET
CC(C)(O)C(O)CN(c1cc2oc(-c3ccc(F)cc3)c(-c3ncc[nH]3)c2cc1C1CC1)S(C)(=O)=O (stereo not drawn) :: MET

Could you please find out whether `CCOC(=O)CCCN(c1cc2oc(-c3ccc(F)cc3)c(C3=NOCCN3)c2cc1C1CC1)S(C)(=O)=O` has pIC50 that meets 7 or exceeds it? MET

Is the recorded value of pIC50 equal to or greater than 7 for this compound? `CS(=O)(=O)N(CCCc1noc(=O)[nH]1)c1cc2oc(-c3ccc(F)cc3)c(-c3ncc[nH]3)c2cc1C1CC1` MET
